The reported measurements were obtained from ChEMBL document CHEMBL4425166.

test-description: Terminal half life in dog by LC/MS/MS analysis
Type: ADME, Canis lupus familiaris
study-conditions: in vivo, read-out: beta t1/2 (converted)
measurement-label: half-life (h)
Hi! Could you send only the number? It should be in h, unit omitted.

Entry `CC(=O)N1CCN(c2ccc(NC(=O)Cc3cnc(-c4ccnc(F)c4)c(C)c3)nc2)CC1` — recorded half-life = 8.86

###

target-of-assay: Protein-serine O-palmitoleoyltransferase porcupine (Mus musculus, UniProt Q9JJJ7)
Sequence (Q9JJJ7 whole entry): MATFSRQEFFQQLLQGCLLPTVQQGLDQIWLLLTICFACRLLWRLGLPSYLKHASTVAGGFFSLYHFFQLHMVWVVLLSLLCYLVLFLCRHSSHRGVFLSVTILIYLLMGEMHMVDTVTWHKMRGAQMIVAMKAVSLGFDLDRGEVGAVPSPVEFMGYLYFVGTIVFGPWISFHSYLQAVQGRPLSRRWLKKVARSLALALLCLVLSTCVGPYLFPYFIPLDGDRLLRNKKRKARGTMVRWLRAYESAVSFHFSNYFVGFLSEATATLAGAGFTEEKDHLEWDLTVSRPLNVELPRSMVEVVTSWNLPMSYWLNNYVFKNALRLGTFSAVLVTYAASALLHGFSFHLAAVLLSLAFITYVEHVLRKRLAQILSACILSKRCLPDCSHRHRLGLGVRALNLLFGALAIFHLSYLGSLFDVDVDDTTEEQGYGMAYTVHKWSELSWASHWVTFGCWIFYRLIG
test-description: Inhibition of PORCN in […] overexpressing Wnt3A co-cultured with TM3 cells transfected with Wnt-luciferase gene after 24 hrs by luminescence assay
Entries and their IC50

INSERT INTO measurements (molecule, value) VALUES
  ('Cc1cc(-c2ccc(NC(=O)Nc3ccc(-c4ccccc4)cc3)cc2)ccn1', '> 10 µM'),
  ('Cc1cc(-c2ncc(CC(=O)Nc3ccc(-c4cnccn4)cn3)cc2C)ccn1 [WNT-974]', '0.0004 µM');

Proceeding to the next molecule to report its IC50.
So for `Cc1cc(-c2ccc(OC(=O)Nc3ccc(-c4ccccc4)cc3)cc2)ccn1` , the logged IC50 turned out to be > 10 µM

###

target-of-assay: UniProtKB P08684
Sequence (P08684 whole entry): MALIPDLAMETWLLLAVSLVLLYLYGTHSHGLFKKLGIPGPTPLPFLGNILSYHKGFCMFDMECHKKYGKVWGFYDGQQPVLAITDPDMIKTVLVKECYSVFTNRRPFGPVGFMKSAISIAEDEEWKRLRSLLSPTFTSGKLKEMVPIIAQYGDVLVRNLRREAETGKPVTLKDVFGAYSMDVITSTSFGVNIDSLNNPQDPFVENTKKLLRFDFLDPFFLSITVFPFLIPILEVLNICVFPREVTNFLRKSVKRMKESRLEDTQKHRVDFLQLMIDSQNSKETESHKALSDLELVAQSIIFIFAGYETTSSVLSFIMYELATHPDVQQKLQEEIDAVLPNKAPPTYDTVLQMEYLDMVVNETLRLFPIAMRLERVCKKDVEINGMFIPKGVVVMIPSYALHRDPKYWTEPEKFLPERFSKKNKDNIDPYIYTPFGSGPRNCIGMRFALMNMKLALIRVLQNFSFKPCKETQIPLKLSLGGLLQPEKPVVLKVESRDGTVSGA
measurement-label: IC50

Note to self: IC50 of `CC(=O)N1CCN(c2ccc(NC(=O)Cc3cnc(-c4ccnc(F)c4)c(C)c3)nc2)CC1` with UniProtKB P08684 was > 10 µM

###

test-description: Efflux ratio of permeability in human Caco2 cells
Type: ADME, cell-based
study-conditions: Caco-2
measurement-label: efflux ratio
Reply briefly: the number, and no unit.

For this compound ( `CC(=O)N1CCN(c2ccc(NC(=O)Cc3cnc(-c4ccnc(F)c4)c(C)c3)nc2)CC1` ), measured efflux ratio is 3.2

###

Target sequence: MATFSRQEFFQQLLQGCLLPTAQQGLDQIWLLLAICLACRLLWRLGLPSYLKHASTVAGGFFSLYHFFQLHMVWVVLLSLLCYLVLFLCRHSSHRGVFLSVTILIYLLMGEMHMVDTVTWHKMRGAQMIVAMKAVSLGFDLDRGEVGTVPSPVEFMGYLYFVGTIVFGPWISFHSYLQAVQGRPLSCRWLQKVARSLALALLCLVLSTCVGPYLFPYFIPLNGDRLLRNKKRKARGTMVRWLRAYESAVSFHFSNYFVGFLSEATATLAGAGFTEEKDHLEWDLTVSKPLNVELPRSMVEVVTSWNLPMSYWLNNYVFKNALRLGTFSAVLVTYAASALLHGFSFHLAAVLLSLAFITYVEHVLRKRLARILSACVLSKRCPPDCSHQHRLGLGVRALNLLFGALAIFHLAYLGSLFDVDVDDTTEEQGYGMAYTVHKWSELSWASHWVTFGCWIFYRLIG
measurement-label: IC50 (nM)
The answer is to be given in nM; state only the numeric part.

Measured IC50 of `CCCn1c(SCC(=O)Nc2nc3ccc(OC)cc3s2)nnc1-c1ccncc1` : 8

###

test-description: Protein binding in monkey plasma by rapid equilibrium dialysis
Assay type: ADME, cell-free, Macaca mulatta
study-conditions: rhesus monkey, read-out: PPB (converted)
measurement-label: fraction unbound

The reported fraction unbound of the molecule `CC(=O)N1CCN(c2ccc(NC(=O)Cc3cnc(-c4ccnc(F)c4)c(C)c3)nc2)CC1` was 0.288

###

test-description: Protein binding in dog plasma by rapid equilibrium dialysis
Format: ADME, cell-free, Canis lupus familiaris
study-conditions: read-out: PPB
measurement-label: fraction unbound
No unit in the answer, only the number.

// fraction unbound value for `CC(=O)N1CCN(c2ccc(NC(=O)Cc3cnc(-c4ccnc(F)c4)c(C)c3)nc2)CC1` : 0.091

###

test-description: Volume of distribution at steady state in Balb/c mouse at 2 mg/kg, iv after 24 hrs by LC/MS/MS analysis
Assay type: ADME, organism-based
study-conditions: in vivo, read-out: Vdss
measurement-label: Vd
Don't forget the unit after the value.

What the record says about `CC(=O)N1CCN(c2ccc(NC(=O)Cc3cnc(-c4ccnc(F)c4)c(C)c3)nc2)CC1` : Vd is 0.57 L/kg

###

target-of-assay: Cytochrome P450 2D6 (Homo sapiens, UniProt P10635)
Sequence (P10635 whole entry): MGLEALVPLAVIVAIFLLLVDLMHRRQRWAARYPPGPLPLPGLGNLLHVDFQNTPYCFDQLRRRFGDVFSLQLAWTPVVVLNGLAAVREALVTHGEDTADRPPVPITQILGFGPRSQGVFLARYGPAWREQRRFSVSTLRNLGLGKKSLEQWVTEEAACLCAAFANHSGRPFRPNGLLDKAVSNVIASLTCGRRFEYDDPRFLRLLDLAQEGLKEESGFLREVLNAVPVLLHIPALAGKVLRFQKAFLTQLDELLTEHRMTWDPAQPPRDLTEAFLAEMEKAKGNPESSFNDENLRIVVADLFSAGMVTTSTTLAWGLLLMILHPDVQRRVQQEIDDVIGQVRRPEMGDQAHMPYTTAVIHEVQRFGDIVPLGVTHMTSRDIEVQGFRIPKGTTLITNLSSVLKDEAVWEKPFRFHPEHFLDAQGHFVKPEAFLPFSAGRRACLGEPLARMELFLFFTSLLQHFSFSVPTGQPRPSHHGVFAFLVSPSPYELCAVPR
pIC50: −log10 of the molar value.
measurement-label: pIC50

Observed pIC50, Cytochrome P450 2D6 (Homo sapiens, UniProt P10635), `CC(=O)N1CCN(c2ccc(NC(=O)Cc3cnc(-c4ccnc(F)c4)c(C)c3)nc2)CC1` : < 5.00

###

test-description: Clearance in dog by LC/MS/MS analysis
Format: ADME, Canis lupus familiaris
study-conditions: in vivo
measurement-label: clearance (mL/min/kg)
Only the number, expressed in mL/min/kg, is required.

# clearance of `CC(=O)N1CCN(c2ccc(NC(=O)Cc3cnc(-c4ccnc(F)c4)c(C)c3)nc2)CC1` = 0.67

###

test-description: Volume of distribution at steady state in dog by LC/MS/MS analysis
Type: ADME, Canis lupus familiaris
study-conditions: in vivo, read-out: Vdss
measurement-label: Vd (L/kg)
The reply should be a number in L/kg, with the unit left off.

Memo: `CC(=O)N1CCN(c2ccc(NC(=O)Cc3cnc(-c4ccnc(F)c4)c(C)c3)nc2)CC1` , reported Vd: 0.25

###

test-description: Aqueous solubility of compound in buffer of pH 6.8 after 24 hrs by UV-based high throughput assay
Assay type: physicochemical
measurement-label: solubility at 24 h (µM)
Express your answer in µM, writing the number without its unit.

Known results for molecules:
INSERT INTO results (structure_as_smiles, measurement_label, unit_spec, value) VALUES
  ('Cc1cc(CC(=O)Nc2ccc(-c3cnccn3)cn2)cnc1-c1ccnc(F)c1', 'solubility at 24 h', 'µM', 105),
  ('Cc1cc(-c2ncc(CC(=O)Nc3ccc(-c4cnccn4)cn3)cc2C)ccn1', 'solubility at 24 h', 'µM', 210),
  ('Cc1cc(-c2ccc(CC(=O)Nc3ccc(-c4ccccc4)cn3)cn2)ccn1', 'solubility at 24 h', 'µM', 6);

Please fill in: solubility at 24 h reported for `Cc1cc(-c2ccc(CC(=O)Nc3ccc(-c4cnccn4)cn3)cn2)ccn1` = 16

Value of solubility at 24 h reported for the molecule `Cc1cc(-c2ccc(CC(=O)Nc3ccc(-c4ccccn4)cn3)cn2)ccn1` is 17

solubility at 24 h recorded for this molecule, `CC(=O)N1CCN(c2ccc(NC(=O)Cc3cnc(-c4ccnc(F)c4)c(C)c3)nc2)CC1` , is 350

Entry `Cc1cc(-c2ncc(CC(=O)Nc3ccc(-c4ccccn4)cn3)cc2C)ccn1` ; solubility at 24 h = 32

###

target-of-assay: Protein-serine O-palmitoleoyltransferase porcupine (Mus musculus)
test-description: Inhibition of PORCN in […] overexpressing Wnt3A co-cultured with TM3 cells transfected with Wnt-luciferase gene after 24 hrs by luminescence assay
measurement-label: pIC50
pIC50 here: minus log base 10 of the concentration, concentration in moles per litre.

Below, 4 compounds whose answers are already recorded.
INSERT INTO measurements (structure_as_smiles, value) VALUES
  ('CCCn1c(SCC(=O)Nc2nc3ccc(OC)cc3s2)nnc1-c1ccncc1', 7.92),
  ('Cc1cc(-c2ccc(CC(=O)Nc3ccc(-c4ccccc4)cn3)cc2)ccn1', 9.15),
  ('COc1ccc2nc(C(=O)NCc3ccc(-c4ccncc4)cc3)sc2c1', 6.42),
  ('O=C(Cc1ccc(-c2ccncc2)cc1)Nc1nc(-c2ccccc2)cs1', 8.26);

Per the record, `CC(=O)N1CCN(c2ccc(NC(=O)Cc3cnc(-c4ccnc(C)c4)c(C)c3)nc2)CC1` has pIC50 of 9.15

Briefly, pIC50 measured for `Cc1cc(CC(=O)Nc2ccc(N3CCNCC3)cn2)cnc1-c1ccnc(F)c1` : 7.62

What the record says about `Cc1cc(-c2ncc(CC(=O)Nc3ccc(-c4ccccn4)cn3)cc2C)ccn1` : pIC50 is 9.40

###

test-description: Protein binding in human plasma by rapid equilibrium dialysis
Assay type: ADME, cell-free
study-conditions: read-out: PPB (converted)
measurement-label: fraction unbound
Give the figure by itself; no unit, no explanation.

Entry under test: `CC(=O)N1CCN(c2ccc(NC(=O)Cc3cnc(-c4ccnc(F)c4)c(C)c3)nc2)CC1` . Its fraction unbound was 0.05
